Below, each entry is listed with its recorded Retained binding to protein A (%).
Biological target: T1, protein A (UniProt P38507 37-477)
T1 construct: also called Protein A superantigen
Assay: Heat/Cool phage ELISA: phage-displayed VH, 80 C 10 min then 4 C 10 min, captured on coated protein A; signal as % of untreated sample
Report as a plain number; the unit % is understood.

Qu. Supply reported Retained binding to protein A (%) belonging to this binder: DP47 VH S30E (other, name in Kabat numbering) VH: QVQLLESGGGLVQPGGSLRLSCAASGFTFESYAMSWVRQAPGKGLEWVSAISGSGGSTYYADSVKGRFTISRDNSKNTLYLQMNSLRAEDTAVYYCAKSYGAFDYWGQGTLVTVSS
Ans. 2.1

Qu. Supply reported Retained binding to protein A (%) belonging to this binder: DP47 VH S30D (other, name in Kabat numbering) VH: QVQLLESGGGLVQPGGSLRLSCAASGFTFDSYAMSWVRQAPGKGLEWVSAISGSGGSTYYADSVKGRFTISRDNSKNTLYLQMNSLRAEDTAVYYCAKSYGAFDYWGQGTLVTVSS
Ans. 21.8
